Recorded values, source paper PMC4552634.

- Test system: P. falciparum stage V gametocytes
- Design: BacTiter-Glo ATP luminescence viability of purified stage V gametocytes in 384-well plates, per cent inhibition versus DMSO
- applied-conditions: 48 h, 5 µM; inhibitor
Among all 13,000 compounds or so, about 3,200 (25%) showed an effect of 50% or more. This is one part of the list.
Threshold rule: % Inhibition greater than or equal to 10% is fulfilled; below that, not fulfilled.

Challenge: Check the entry `CC(=O)N(Cc1cccc(-c2cccc(CNCCc3ccccc3)c2)c1)C1CCN(Cc2ccccc2)CC1` : does % Inhibition equal or exceed 10%?
Response given: fulfilled

Challenge: Check the entry `CC(=O)N(Cc1cccc(-c2ccc(CNCCc3ccccc3)cc2)c1)C1CCN(Cc2ccccc2)CC1` : does % Inhibition equal or exceed 10%?
Response given: fulfilled

Challenge: Check the entry `O=C(C=Cc1ccc(Cl)c(Cl)c1)NCCCCCN1CCC(c2[nH]nc3ccccc23)CC1` : does % Inhibition equal or exceed 10%?
Response given: not fulfilled

Challenge: Check the entry CC1CCc2c(C(=O)N3CCc4ccccc4C3)csc2C1 (centres unmarked) : does % Inhibition equal or exceed 10%?
Response given: fulfilled

Challenge: Check the entry `COc1ccc2nccc([C@@H](O)CN3CCC(NCc4cn5cc(F)ccc5n4)CC3)c2c1` : does % Inhibition equal or exceed 10%?
Response given: fulfilled

Challenge: Check the entry `Nc1nc(N)c2c(Oc3cccc(Cl)c3)cccc2n1` : does % Inhibition equal or exceed 10%?
Response given: not fulfilled

Challenge: Check the entry CN(Cc1ccccc1)C1CCCN(c2cc(NC(=O)c3ccc(F)cc3)ccn2)C1 (centres unmarked) : does % Inhibition equal or exceed 10%?
Response given: not fulfilled

Challenge: Check the entry CC1(C)CCCN(C(=O)Cc2ccc3c(c2)CCCC3)C1CN1CC=CC1 (centres unmarked) : does % Inhibition equal or exceed 10%?
Response given: not fulfilled

----------
What % Inhibition was measured for each of the following?
- Test system: P. falciparum stage V gametocytes
- Design: BacTiter-Glo ATP luminescence viability of purified stage V gametocytes in 384-well plates, per cent inhibition versus DMSO
- applied-conditions: 48 h, 5 µM; inhibitor
The campaign covered roughly 13,000 compounds. About 3,200 (25%) showed an effect of 50% or more. The list shows a part of the results.
Report the value in % with no unit label.

Value of % Inhibition reported for the compound O=C(c1ccc(OCCn2ccnc2)cc1)N1CCC(c2ccc(Br)cc2)C1 (stereo not shown) is 38.05

Value of % Inhibition reported for the compound `O=c1[nH]c(=O)n2c(nc3ccccc32)[nH]1` is 19.78

Value of % Inhibition reported for the compound `CC(=O)Nc1ccc(CN2CCC(NC(=O)c3ccc(-c4cccc(F)c4)s3)CC2)cc1` is 6.679

Value of % Inhibition reported for the compound `CCCC(=O)Nc1ccc(OCCCN(Cc2ccccc2C(F)(F)F)c2ccc(C#N)c(C(F)(F)F)c2)cc1` is 20.73

----------
- System: P. falciparum stage V gametocytes
- Parameters: BacTiter-Glo ATP luminescence viability of purified stage V gametocytes in 384-well plates, per cent inhibition versus DMSO
- applied-conditions: 48 h, 5 µM; inhibitor
In all, about 13,000 compounds went through this assay and about 3,200 (25%) showed an effect of 50% or more. The list shows a part of the results.
metric-name: % Inhibition (%)
Report the value in % with no unit label.

Value of % Inhibition reported for the compound FC(F)(F)c1ccc(N2CCCN(Cc3cccc(-c4ccccc4CNCc4ccc5c(c4)OCO5)c3)CC2)nc1 [TCMDC-140216] is -3.324

Value of % Inhibition reported for the compound Cc1ccc(C)c2sc(N(CCCn3ccnc3)C(=O)c3ccco3)nc12 [TCMDC-124924] is 13.91

Value of % Inhibition reported for the compound CN1CCN(CCCNCc2ccccc2-c2cccc(CNCc3ccc4c(c3)OCO4)c2)CC1 [TCMDC-140476] is 103.3

Value of % Inhibition reported for the compound Cc1ccc2[nH]c(-c3ccccc3N)cc2c1 [TCMDC-131289] is -61.86

Value of % Inhibition reported for the compound O=C(NCc1ccc(F)cc1)Nc1cccc(-c2ccc(-c3nc4ccccc4[nH]3)cc2)c1 [TCMDC-133300] is 7.874

Value of % Inhibition reported for the compound c1cn(-c2ccc(CNc3nccc(Nc4ccc(OCCN5CCOCC5)cc4)n3)cc2)cn1 [TCMDC-134665] is 13.33

Value of % Inhibition reported for the compound CCC(C)NS(=O)(=O)c1ccc2nc(Nc3ccc(C)c(Cl)c3)n([C@H](C)C(C)(C)C)c2c1 (some centres unmarked) [TCMDC-136238] is 38.05

Value of % Inhibition reported for the compound O=C(Nc1ccc2c(c1)CCN2C1CCN(Cc2ccc(O)cc2)C1)c1ccco1 (centres unmarked) [TCMDC-135066] is -16.31
